- Test system: Rattus norvegicus
- experiment_notes: Blood uptake in percent injected dose/gram (range) was determined in female fischer rat after 1251-labelled compound complexed with bovine serum albumin was injected intravenously after 60 minutes
- Type: functional
result_type: Activity (%)
Give bare numbers, in %.

Problem: Notebook entry, Rattus norvegicus assay: Activity of O=C(O)CCCCCCCCCCCCCCc1ccc(I)cc1 [IOCANLIDIC ACID] = ?
Result: 1.32

Problem: Notebook entry, Rattus norvegicus assay: Activity of "O=C(O)CCCCCCCCCCCCCc1ccc(I)cc1" = ?
Result: 1.48

Problem: Notebook entry, Rattus norvegicus assay: Activity of CC(CCCCCCCCCCCCc1ccc(I)cc1)CC(=O)O (racemic) [IODOFILTIC ACID] = ?
Result: 1.7

Read the next record carefully.
Problem: Notebook entry, Rattus norvegicus assay: Activity of CC(CCCCCCCCCCCCc1ccc(I)cc1)C(=O)O (racemic) = ?
Result: 1.64

====

- System: Rattus norvegicus
- experiment_notes: Liver uptake in percent injected dose/gram (range) was determined in female fischer rat after 1251-labelled compound complexed with bovine serum albumin was injected intravenously after 60 min
- Format: functional
result_type: Activity (%)
Answers are plain numbers, in %.

Example entries begin here.
Problem: // Activity lookup, key: O=C(O)CCCCCCCCCCCCCCc1ccc(I)cc1 [IOCANLIDIC ACID]
Result: 3.76

Problem: // Activity lookup, key: CC(CCCCCCCCCCCCc1ccc(I)cc1)CC(=O)O (racemic) [IODOFILTIC ACID]
Result: 1.92

Problem: // Activity lookup, key: "O=C(O)CCCCCCCCCCCCCc1ccc(I)cc1"
Result: 2.04

Read the next record carefully.
Problem: // Activity lookup, key: CC(CCCCCCCCCCCCc1ccc(I)cc1)C(=O)O (racemic)
Result: 2.94

====

- Test system: Rattus norvegicus
- experiment_notes: Blood uptake in percent injected dose/gram (range) was determined in female fischer rat after 1251-labelled compound complexed with bovine serum albumin was injected intravenously after 5 minutes
- Format: functional
result_type: Activity (%)
Give bare numbers, in %.

Example entries begin here.
Problem: Notebook entry, Rattus norvegicus assay: Activity of CC(CCCCCCCCCCCCc1ccc(I)cc1)C(=O)O (racemic) = ?
Result: 1.8

Problem: Notebook entry, Rattus norvegicus assay: Activity of CC(CCCCCCCCCCCCc1ccc(I)cc1)CC(=O)O (racemic) [IODOFILTIC ACID] = ?
Result: 0.71

Problem: Notebook entry, Rattus norvegicus assay: Activity of O=C(O)CCCCCCCCCCCCCCc1ccc(I)cc1 [IOCANLIDIC ACID] = ?
Result: 0.91

Read the next record carefully.
Problem: Notebook entry, Rattus norvegicus assay: Activity of "O=C(O)CCCCCCCCCCCCCc1ccc(I)cc1" = ?
Result: 1.58
